assay: folding enthalpy; higher = less favourable; fluorescence melt of hairpins on a sequencing array, two-state fit; details: sodium 0.088 M
Assign class by folding enthalpy: not lower than -30 kcal/mol means 1.0; lower than -30 kcal/mol means 0.0.

- construct sequence: "GCTAGGCGAAAGCCGGGC ((..(((....)))..))"
  group label: 1.0
- construct sequence: "GGAAATGGAAACATTCCC ((.((((....)))).))"
  group label: 1.0
- construct sequence: "GGCTGCCGAAAGGCGCC (((.(((....))))))"
  group label: 1.0
- construct sequence: "GTATAAGGAAACTTGTAC (((.(((....))).)))"
  group label: 1.0
- construct sequence: "GAGACGGGAAACCGTTTC ((.((((....)))).))"
  group label: 1.0
- construct sequence: "GGCAAGGGAAACCCTGCC ((((.((....)).))))"
  group label: 0.0
- construct sequence: "GTCCCCTCGAAAGAGGAC (((..(((....))))))"
  group label: 1.0
- construct sequence: "GATCGATTTGTCGATC ((((((....))))))"
  group label: 0.0
- construct sequence: "GCGAACCGTCGC ((((....))))"
  group label: 1.0
- construct sequence: "GTGCACGGAAACATGCAC (((((.(....).)))))"
  group label: 0.0
